target: T1, mfNPR1-mFc:hANP complex (monkey; human, UniProt P01160 124-151); assay: SPR, mAb captured, 37C
T1 construct: also called monkey NPR1 complexed to ANP

binder	t½ / min
mAb22035 (antibody, human IgG4, V domains shown) VH: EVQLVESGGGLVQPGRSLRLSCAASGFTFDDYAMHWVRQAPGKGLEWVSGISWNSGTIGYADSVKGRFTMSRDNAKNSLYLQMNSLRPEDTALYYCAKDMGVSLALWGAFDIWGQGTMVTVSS VL: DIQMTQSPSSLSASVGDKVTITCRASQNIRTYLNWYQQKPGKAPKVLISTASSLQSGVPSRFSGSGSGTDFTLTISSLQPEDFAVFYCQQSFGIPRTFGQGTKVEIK	150
mAb25508 (antibody, human IgG4, V domains shown) VH: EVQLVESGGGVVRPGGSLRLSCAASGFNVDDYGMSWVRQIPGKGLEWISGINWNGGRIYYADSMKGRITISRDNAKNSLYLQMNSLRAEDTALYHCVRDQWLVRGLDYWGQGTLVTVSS VL: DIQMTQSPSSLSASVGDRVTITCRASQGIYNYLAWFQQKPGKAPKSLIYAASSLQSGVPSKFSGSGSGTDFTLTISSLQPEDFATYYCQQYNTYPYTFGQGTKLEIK	79.3
mAb25497 (antibody, human IgG4, V domains shown) VH: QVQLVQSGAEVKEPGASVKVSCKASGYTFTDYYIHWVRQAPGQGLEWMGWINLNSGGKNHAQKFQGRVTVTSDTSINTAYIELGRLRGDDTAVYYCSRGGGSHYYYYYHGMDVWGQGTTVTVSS VL: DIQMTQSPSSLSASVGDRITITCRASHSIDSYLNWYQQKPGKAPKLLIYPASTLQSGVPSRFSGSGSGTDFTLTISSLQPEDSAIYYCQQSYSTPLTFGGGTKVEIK	75.9
mAb25502 (antibody, human IgG4, V domains shown) VH: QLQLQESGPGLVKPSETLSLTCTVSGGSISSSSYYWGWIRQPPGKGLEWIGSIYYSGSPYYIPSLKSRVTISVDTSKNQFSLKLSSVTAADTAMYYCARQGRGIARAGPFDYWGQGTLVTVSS VL: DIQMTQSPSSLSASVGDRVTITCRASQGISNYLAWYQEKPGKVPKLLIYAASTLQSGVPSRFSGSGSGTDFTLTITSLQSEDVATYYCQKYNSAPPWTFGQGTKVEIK	22
mAb25479 (antibody, human IgG4, V domains shown) VH: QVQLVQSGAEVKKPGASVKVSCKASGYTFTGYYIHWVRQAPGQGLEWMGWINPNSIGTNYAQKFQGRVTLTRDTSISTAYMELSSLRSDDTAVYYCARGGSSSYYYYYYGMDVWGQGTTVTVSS VL: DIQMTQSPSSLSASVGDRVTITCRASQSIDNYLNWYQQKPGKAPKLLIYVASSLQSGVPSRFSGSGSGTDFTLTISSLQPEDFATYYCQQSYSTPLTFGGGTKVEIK	52.8
mAb22809 (antibody, human IgG4, V domains shown) VH: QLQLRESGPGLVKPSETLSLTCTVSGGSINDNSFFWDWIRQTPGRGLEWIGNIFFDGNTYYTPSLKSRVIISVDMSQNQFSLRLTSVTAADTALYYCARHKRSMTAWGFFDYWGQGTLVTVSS VL: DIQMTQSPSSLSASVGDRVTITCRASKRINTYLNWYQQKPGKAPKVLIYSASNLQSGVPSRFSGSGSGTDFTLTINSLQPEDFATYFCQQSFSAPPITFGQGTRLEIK	56.2
mAb22805 (antibody, human IgG4, V domains shown) VH: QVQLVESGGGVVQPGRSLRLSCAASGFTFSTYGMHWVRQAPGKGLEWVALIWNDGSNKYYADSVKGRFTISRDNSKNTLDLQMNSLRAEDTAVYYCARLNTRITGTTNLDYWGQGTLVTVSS VL: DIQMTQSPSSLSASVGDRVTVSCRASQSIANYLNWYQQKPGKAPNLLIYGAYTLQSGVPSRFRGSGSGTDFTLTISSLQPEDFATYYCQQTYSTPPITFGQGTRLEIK	55.3
